targetOrSystem: DPP4 (Homo sapiens, UniProt P27487)
Sequence (P27487 whole entry): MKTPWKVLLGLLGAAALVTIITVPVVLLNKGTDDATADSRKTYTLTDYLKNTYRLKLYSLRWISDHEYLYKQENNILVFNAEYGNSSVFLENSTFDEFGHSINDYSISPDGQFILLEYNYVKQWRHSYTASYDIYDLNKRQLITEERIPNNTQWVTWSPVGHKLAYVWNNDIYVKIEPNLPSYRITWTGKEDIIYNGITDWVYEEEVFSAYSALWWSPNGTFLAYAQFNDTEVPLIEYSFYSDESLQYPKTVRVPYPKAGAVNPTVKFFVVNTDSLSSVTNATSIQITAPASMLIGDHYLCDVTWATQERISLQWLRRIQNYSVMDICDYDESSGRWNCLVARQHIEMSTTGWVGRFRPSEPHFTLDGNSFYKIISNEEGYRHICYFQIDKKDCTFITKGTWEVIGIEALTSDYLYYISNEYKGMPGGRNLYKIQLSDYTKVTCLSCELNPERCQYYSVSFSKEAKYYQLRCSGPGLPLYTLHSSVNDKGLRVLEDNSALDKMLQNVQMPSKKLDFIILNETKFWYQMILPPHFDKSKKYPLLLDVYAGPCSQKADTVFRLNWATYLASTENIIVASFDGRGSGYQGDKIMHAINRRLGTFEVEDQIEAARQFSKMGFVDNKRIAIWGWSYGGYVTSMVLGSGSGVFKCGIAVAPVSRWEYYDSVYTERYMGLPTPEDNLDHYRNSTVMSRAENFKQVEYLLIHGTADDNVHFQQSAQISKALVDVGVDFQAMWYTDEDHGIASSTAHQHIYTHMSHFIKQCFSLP
assayOverview: DPP4 activity assay (DPP4 inhibitor screening assay kit, Cayman);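 further: fluorescence read at excitation 360 nm and emission 460 nm after the enzyme reaction ran 30 min at 37 °C in a 96-well plate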
Type: biochemical
Parameters: purchased Cayman Chemical, Ann Arbor, MI, USA
experimentalSetup: 10 µM; control mean 100.0; Figure 1A raw data
Values of DPP4 activity in library screen, Exp 3 greater than or equal to 90 map to satisfied; values below map to not satisfied.

{"columns": ["compound", "cat"],
 "data": [
  ["CN1CC[C@]23c4ccccc4N[C@H]1[C@]21CCN(C)[C@H]3Nc2ccccc21", "satisfied"],
  ["C[C@@H]1O[C@@H](O)[C@H](O)[C@H](O)[C@H]1O.O [L-(+)-Rhamnose Monohydrate]", "satisfied"],
  ["COc1cc(/C=C/C(=O)O)ccc1O", "satisfied"],
  ["O=C1CCC[C@@H]2[C@H]3CCCN4CCC[C@@H](CN12)[C@@H]34 [(+)-Matrine]", "satisfied"],
  ["CCCCCCCCCCCCCCCC(=O)OC[C@@]1(O)C[C@@]23CC[C@@H]4c5ccoc5CC[C@@]4(C)[C@@H]2CC[C@@H]1C3 [Cafestol palmitate]", "satisfied"],
  ["CC1(C)[C@@H](O[C@H]2O[C@H](C(=O)O)[C@@H](O)[C@H](O)[C@H]2O[C@@H]2O[C@H](C(=O)O)[C@@H](O)[C@H](O)[C@H]2O)CC[C@]2(C)[C@H]3C(=O)C=C4[C@@H]5C[C@@](C)(C(=O)O)CC[C@]5(C)CC[C@@]4(C)[C@]3(C)CC[C@@H]12 [Ammonium Glycyrrhizinate]", "not satisfied"],
  ["O=c1c(O)c(-c2ccc(O)c(O)c2)oc2cc(O)cc(O)c12 [Quercetin Dihydrate]", "not satisfied"],
  ["COc1ccc(CC2NCCc3cc(OC)c(OC)cc32)cc1OC.Cl (stereo not shown) [Tetrahydropapaverine HCl]", "not satisfied"],
  ["CCC1=C[C@@H]2CN3CCc4c([nH]c5ccccc45)[C@@](C(=O)OC)(C2)[C@@H]13", "satisfied"]
]}
